target: T1, IL-1β (UniProt P01584 117-269); assay: Biacore, periplasmic extract
T1 construct: Antigen immobilised on the Biacore chip
observation_type: binding result

>  <binder>
XPA23 light chain L96R (Fab, V domains shown) VH: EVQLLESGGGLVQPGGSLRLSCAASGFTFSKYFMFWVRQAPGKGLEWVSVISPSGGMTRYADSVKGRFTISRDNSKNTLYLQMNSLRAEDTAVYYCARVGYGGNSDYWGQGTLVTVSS VL: DIQMTQSPSSVSASVGDRLTIICRASQDINRWLAWYQQTPGNAPKLLIHSATSLQSGVPSRFSGSGSGTDFTLTINSLQPEDFATYYCQQADSFPRTFGGGTKVEIK

>  <observation_type>
binding result

>  <obs_value>
no binding

$$$$
>  <binder>
XPA23 light chain P95W (Fab, V domains shown) VH: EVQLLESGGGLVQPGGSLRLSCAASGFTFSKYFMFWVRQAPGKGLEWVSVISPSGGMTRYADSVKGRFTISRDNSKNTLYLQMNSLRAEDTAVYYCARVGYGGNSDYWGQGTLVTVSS VL: DIQMTQSPSSVSASVGDRLTIICRASQDINRWLAWYQQTPGNAPKLLIHSATSLQSGVPSRFSGSGSGTDFTLTINSLQPEDFATYYCQQADSFWLTFGGGTKVEIK

>  <observation_type>
binding result

>  <obs_value>
no binding

$$$$
>  <binder>
XPA23 light chain F94D (Fab, V domains shown) VH: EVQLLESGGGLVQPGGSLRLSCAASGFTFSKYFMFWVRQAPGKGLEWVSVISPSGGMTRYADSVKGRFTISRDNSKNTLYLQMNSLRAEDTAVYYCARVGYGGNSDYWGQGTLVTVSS VL: DIQMTQSPSSVSASVGDRLTIICRASQDINRWLAWYQQTPGNAPKLLIHSATSLQSGVPSRFSGSGSGTDFTLTINSLQPEDFATYYCQQADSDPLTFGGGTKVEIK

>  <observation_type>
binding result

>  <obs_value>
no binding

$$$$
